target.under.test: THRβ-LBD (Homo sapiens, UniProt P10828)
measurement.protocol: THR coactivator recruitment assay (LanthaScreen TR-FRET), THRβ
protocol.conditions: maximum activity relative to the maximum activity of 500 nM T3
Form field: THRβ Bmax % (vs T3) (one value per entry).
Return type: number; implicit unit %.

Field: example entries. Status: answers known.
compound	test.value
[2H]C([2H])([2H])[C@H]1CCc2c(Oc3c(Cl)cc(-n4nc(C#N)c(=O)[nH]c4=O)cc3Cl)n[nH]c(=O)c21 [Example 52]	23
CC(C)n1c(=O)ccn(Cc2c(Cl)cc(-n3nc(C#N)c(=O)[nH]c3=O)cc2Cl)c1=O [Example 1]	80
CC(C)c1cc(Oc2c(Cl)cc(-n3nc(C#N)c(=O)[nH]c3=O)cc2Cl)nn2nnnc12 [Example 42]	27
CC(C)c1cc(Oc2c(Cl)cc(-n3cc(C#N)c(=O)[nH]c3=O)cc2Cl)n[nH]c1=O [Example 12]	35

From here, focus on the item given below.
// Cc1cc(-n2nc(C#N)c(=O)[nH]c2=O)cc(Cl)c1Oc1n[nH]c(=O)c2c1CC[C@H]2C (single isomer, unassigned) [Example 57] : THRβ Bmax % (vs T3) value = 53

----------
The reader will find reported THRα Bmax % (vs T3) values listed item by item below.
target.under.test: THRα-LBD (Homo sapiens, UniProt P10827)
Construct: purchased ThermoFisher
Sequence (P10827 163-410 isoform P10827-2 limits assumed, other chains not shown): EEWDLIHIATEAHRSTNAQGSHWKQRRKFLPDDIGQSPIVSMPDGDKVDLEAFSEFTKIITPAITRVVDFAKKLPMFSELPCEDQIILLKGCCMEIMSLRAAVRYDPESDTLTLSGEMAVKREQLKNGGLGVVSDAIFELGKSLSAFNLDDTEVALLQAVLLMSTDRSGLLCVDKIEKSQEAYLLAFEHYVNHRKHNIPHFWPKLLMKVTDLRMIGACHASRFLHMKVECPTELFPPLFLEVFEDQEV
measurement.protocol: THR coactivator recruitment assay (LanthaScreen TR-FRET), THRα
Format: biochemical
protocol.conditions: maximum activity relative to the maximum activity of 500 nM T3
// return numeric value only (unit: %, not printed)

Example compounds with recorded THRα Bmax % (vs T3):
compound	THRα Bmax % (vs T3) / %
[2H]C([2H])([2H])[C@H]1CCc2c(Oc3c(Cl)cc(-n4nc(C#N)c(=O)[nH]c4=O)cc3Cl)n[nH]c(=O)c21 [Example 52]	15
Cc1cc(-n2nc(C#N)c(=O)[nH]c2=O)cc(Cl)c1Oc1n[nH]c(=O)c2c1CC[C@H]2C (single isomer, unassigned) [Example 57]	43

GET /value?item= CC(C)c1cc(Oc2c(Cl)cc(-n3nc(C#N)c(=O)[nH]c3=O)cc2Cl)nn2nnnc12 [Example 42] &field=THRα Bmax % (vs T3) returns 3

----------
System: Thyroidectomized rats
measurement.protocol: Heart safety evaluation in hypothyroid rat: heart rate
Format: in vivo
protocol.conditions: 100 mg/kg oral gavage, monitored for 1 hour, 10% change is normal noise

molecule	heart rate change
CC(C)c1cc(Oc2c(Cl)cc(-n3nc(C#N)c(=O)[nH]c3=O)cc2Cl)n[nH]c1=O [MGL-3196, reference compound]	only mildly affected
[2H]c1c(Cl)c(Oc2cc(C(C([2H])([2H])[2H])C([2H])([2H])[2H])c(=O)[nH]n2)c(Cl)c([2H])c1-n1nc(C#N)c(=O)[nH]c1=O [Example 30]	no heart rate change
C[C@@H]1CCc2c(Oc3c(Cl)cc(-n4nc(C#N)c(=O)[nH]c4=O)cc3Cl)n[nH]c(=O)c21 (single isomer, unassigned) [Example 41]	no heart rate change
[2H]C([2H])([2H])C(c1cc(Oc2c(Cl)cc(-n3nc(C#N)c(=O)[nH]c3=O)cc2Cl)n[nH]c1=O)C([2H])([2H])[2H] [Example 7]	only mildly affected

----------
target.under.test: THRβ-LBD (Homo sapiens, UniProt P10828)
Sequence (P10828 217-461 limits assumed): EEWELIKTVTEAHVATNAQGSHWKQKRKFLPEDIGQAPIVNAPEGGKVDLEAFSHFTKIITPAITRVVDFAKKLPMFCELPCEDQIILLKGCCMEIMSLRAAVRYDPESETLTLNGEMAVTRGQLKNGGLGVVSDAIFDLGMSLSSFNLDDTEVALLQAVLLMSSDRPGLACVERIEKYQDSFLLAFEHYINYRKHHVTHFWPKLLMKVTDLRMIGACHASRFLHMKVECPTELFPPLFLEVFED
measurement.protocol: THR coactivator recruitment assay (LanthaScreen TR-FRET), THRβ
protocol.conditions: maximum activity relative to the maximum activity of 500 nM T3
In this section, each of the compounds is paired with its reported THRβ Bmax % (vs T3).
Use % as the unit, but write only the number.

compound	unit.of.measure	test.value
CC(C)c1cc(Oc2c(Cl)cc(-n3nc(C#N)c(=O)[nH]c3=O)cc2Cl)nnc1C#N	%	7
[2H]c1c(Cl)c(Oc2n[nH]c(=O)c3c2CCC3C)c(Cl)c([2H])c1-n1nc(C#N)c(=O)[nH]c1=O (stereo not drawn)	%	26
[2H]C([2H])([2H])C(c1cc(=O)[nH]nc1Oc1c(F)cc(-n2nc(C#N)c(=O)[nH]c2=O)cc1Cl)C([2H])([2H])[2H]	%	6
[2H]C([2H])([2H])[C@@H]1CCc2c(Oc3c(Cl)cc(-n4nc(C#N)c(=O)[nH]c4=O)cc3Cl)n[nH]c(=O)c21 (single isomer, unassigned)	%	37
CC(C)c1cc(=O)[nH]nc1Oc1c(F)cc(-n2nc(C#N)c(=O)[nH]c2=O)cc1Cl	%	7
C[C@H]1CCc2c(Oc3c(Cl)cc(-n4nc(C#N)c(=O)[nH]c4=O)cc3Cl)n[nH]c(=O)c21 (single isomer, unassigned)	%	6
CC(C)c1c(Cl)c(Oc2c(Cl)cc(-n3nc(C#N)c(=O)[nH]c3=O)cc2Cl)n[nH]c1=O	%	0
N#Cc1nn(-c2cc(Cl)c(Oc3n[nH]c(=O)cc3C3CC(F)(F)C3)c(Cl)c2)c(=O)[nH]c1=O	%	6

Consider the additional compound presented here.
compound N#Cc1nn(-c2cc(Cl)c(Oc3n[nH]c(=O)cc3C(F)F)c(Cl)c2)c(=O)[nH]c1=O , THRβ Bmax % (vs T3) observed: 0
